logD values for the molecules below.
# assay-procedure: Lipophilicity, log D of compound
# Format: physicochemical
# cond: octanol/water
Kindly provide the number alone.

Sample records with logD:
| molecule | logD |
| --- | --- |
| CC[C@@H]1[C@H](F)C(=O)N[C@@H]1COc1nccc2cc(C(N)=O)c(OC)cc12 | 2 |
| CC(C)Oc1cc2c(O[C@@H]3CCCNC3)nccc2cc1C(N)=O | 0.7 |
| COc1cc2c(OC[C@@H]3CCC(=O)N3)cccc2cc1C(N)=O | 1.5 |
| CC(C)Oc1cc2c(O[C@@H]3CCCNC3)ccnc2cc1C(N)=O | 0.4 |

Now for another entry.
Quick check: logD of `COc1cc2c(OC[C@@H]3CCC(=O)N3)nccc2cc1C(N)=O` ? 0.9
